Here, each record is paired with measured IC50 data.
Target: rh beta tryptase (Homo sapiens)
Sequence (Q15661 31-275): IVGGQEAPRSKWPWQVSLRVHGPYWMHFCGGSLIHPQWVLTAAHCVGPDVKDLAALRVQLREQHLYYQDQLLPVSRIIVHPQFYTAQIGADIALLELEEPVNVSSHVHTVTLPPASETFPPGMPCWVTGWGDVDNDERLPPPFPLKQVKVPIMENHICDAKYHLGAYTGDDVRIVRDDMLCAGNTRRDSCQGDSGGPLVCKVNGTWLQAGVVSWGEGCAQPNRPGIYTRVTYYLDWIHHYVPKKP
Test: tryptase inhibition in vitro test (cleavage of N-p-tosyl-Gly-Pro-Lys-para-nitroaniline, p-nitroaniline measured at 405 nm)
Conditions: rh beta tryptase 0.91 U/ml, substrate 0.6 mM, Tris HCl buffer with calcium and heparin, pH 7.4, 37° C., 5 minutes incubation; read-out: Tryptase-inhibiting activity
Procedure: The compounds according to the invention are characterised by their tryptase-inhibiting activity. This ability to inhibit tryptase was investigated using the test described below. The measurement is carried out in Tris HCl buffer (100 mM), which additionally contains calcium (5 mM) and heparin (100 mg/ml), at pH 7.4. […] The substrate is digested with tryptase to form p-nitroaniline which can be measured at 405 nm. […]
Structures can show the parent of a compound that is named as a salt.
endpoint.label: IC50

In [3]: df
Out[3]:
                                   compound                   assayed_system  endpoint_label            measured
0  CN(C(=O)CN1CCC(Nc2ccc3c(c2)Cc2ccccc2-3)CC1)c1ccc2c(c1)nc(CCc1ccc(C(=N)N)cc1)n2C [Example 42, dihydrochloride]  rh beta tryptase (Homo sapiens)            IC50    0.004 to 0.03 µM
1  Cn1c(CCc2ccc(C(=N)N)cc2)nc2cc(N(Cc3cccc4ccccc34)C(=O)Nc3cccc4ccccc34)ccc21 [Example 75, hydrochloride]  rh beta tryptase (Homo sapiens)            IC50    0.004 to 0.03 µM
2  Cn1c(CCc2ccc(C(=N)N)cc2)nc2cc(N(Cc3ccncc3)C(=O)CN3CCC(Nc4ccccn4)CC3)ccc21 [Example 46, dihydrochloride]  rh beta tryptase (Homo sapiens)            IC50    0.004 to 0.03 µM
3  Cn1c(CCc2ccc(C(=N)N)cc2)nc2cc(N(Cc3cccc4ccccc34)C(=O)CN3CCC(Nc4ccccc4)CC3)ccc21 [Example 1, Dihydrochloride]  rh beta tryptase (Homo sapiens)            IC50    0.004 to 0.03 µM
4  Cn1c(CCc2ccc(C(=N)N)cc2)nc2cc(NC(=O)N3CCC(Nc4ccccn4)CC3)ccc21 [Example 82, hydrochloride]  rh beta tryptase (Homo sapiens)            IC50       0.031 to 1 µM
5  CN(C(=O)CN1CCC(Nc2ccc(F)cc2Cl)CC1)c1ccc2c(c1)nc(CCc1ccc(C(=N)N)cc1)n2C [Example 33, dihydrochloride]  rh beta tryptase (Homo sapiens)            IC50  0.0005 to 0.003 µM

---

Target: rh beta tryptase (Homo sapiens)
Test: tryptase inhibition in vitro test (cleavage of N-p-tosyl-Gly-Pro-Lys-para-nitroaniline, p-nitroaniline measured at 405 nm)
Details: rh beta tryptase 0.91 U/ml, substrate 0.6 mM, Tris HCl buffer with calcium and heparin, pH 7.4, 37° C., 5 minutes incubation; read-out: Tryptase-inhibiting activity
pIC50: −log10 of the molar value. Counter-ions that a name gives are not always drawn.
Here, each record is paired with measured pIC50 data.

molecule	assayed.system	pIC50
COc1ccc(NC2CCN(CC(=O)N(Cc3cccc4ccccc34)c3ccc4c(c3)nc(CCc3ccc(C(=N)N)cc3)n4C)CC2)cc1 [Example 14, dihydrochloride]	rh beta tryptase (Homo sapiens)	7.52 to 8.40
CN(C(=O)CN1CCC(Nc2ccc(Cl)cc2)CC1)c1ccc2c(c1)nc(CCc1ccc(C(=N)N)cc1)n2C [Example 105, dihydrochloride]	rh beta tryptase (Homo sapiens)	8.52 to 9.30
Cn1c(CCc2ccc(C(=N)N)cc2)nc2cc(N(Cc3cccc4ccccc34)C(=O)NC3CCC(Nc4ccccn4)CC3)ccc21 (stereo not drawn) [Example 76, hydrochloride]	rh beta tryptase (Homo sapiens)	6.00 to 7.51
CN(C(=O)CN1CCC(Nc2ccccc2C(F)(F)F)CC1)c1ccc2c(c1)nc(CCc1ccc(C(=N)N)cc1)n2C [Example 38, dihydrochloride]	rh beta tryptase (Homo sapiens)	7.52 to 8.40
Cn1c(CCc2ccc(C(=N)N)cc2)nc2cc(N(Cc3cccc4ccccc34)C(=O)CN3CCC(Nc4ccccn4)CC3)ccc21 [Example 6, dihydrochloride]	rh beta tryptase (Homo sapiens)	8.52 to 9.30
Cn1c(CCc2ccc(C(=N)N)cc2)nc2cc(N(Cc3ccc(C(C)(C)C)cc3)C(=O)CN3CCC(Nc4ccccn4)CC3)ccc21 [Example 3, Dihydrochloride]	rh beta tryptase (Homo sapiens)	7.52 to 8.40
